# System: RARa:RXR (NR concentration 270 nM, RXRa partner concentration 90 nM)
# test-summary: PBM binding z-score (relative to random genomic background probes); higher = stronger binding; sequences stand for … in GC…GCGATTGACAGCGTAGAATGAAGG
reported-metric: PBM binding z-score

{"polymer-sequence": "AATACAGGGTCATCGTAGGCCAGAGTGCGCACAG", "number": 4.82}
{"polymer-sequence": "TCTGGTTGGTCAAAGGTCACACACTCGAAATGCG", "number": 7.76}
{"polymer-sequence": "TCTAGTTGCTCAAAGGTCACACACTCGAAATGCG", "number": 5.48}
{"polymer-sequence": "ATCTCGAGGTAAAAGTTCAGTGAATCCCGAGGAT", "number": 2.6}
{"polymer-sequence": "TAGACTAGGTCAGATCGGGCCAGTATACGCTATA", "number": 1.18}
{"polymer-sequence": "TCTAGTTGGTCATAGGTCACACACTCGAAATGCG", "number": 4.39}
{"polymer-sequence": "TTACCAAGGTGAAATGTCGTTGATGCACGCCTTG", "number": 0.706}
{"polymer-sequence": "ATACCATGGTGATCGTGAGGTCGTTGATACTAAC", "number": 1.27}
{"polymer-sequence": "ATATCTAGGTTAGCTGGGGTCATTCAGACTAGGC", "number": 5.11}
{"polymer-sequence": "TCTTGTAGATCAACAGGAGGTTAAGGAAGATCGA", "number": 0.702}
{"polymer-sequence": "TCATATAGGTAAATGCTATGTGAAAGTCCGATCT", "number": 0.813}
{"polymer-sequence": "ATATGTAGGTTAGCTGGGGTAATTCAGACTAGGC", "number": 1.44}
{"polymer-sequence": "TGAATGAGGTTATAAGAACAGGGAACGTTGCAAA", "number": 1.32}
{"polymer-sequence": "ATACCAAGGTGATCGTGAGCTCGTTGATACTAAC", "number": 0.256}

###

// reported PBM binding z-score for each item listed
# System: RXRa homodimer (NR concentration 180 nM)
# test-summary: PBM binding z-score (relative to random genomic background probes); higher = stronger binding; sequences stand for … in GC…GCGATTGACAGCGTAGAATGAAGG

{"polymer-sequence": "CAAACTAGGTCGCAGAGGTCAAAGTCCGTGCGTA", "PBM binding z-score": 6.96}
{"polymer-sequence": "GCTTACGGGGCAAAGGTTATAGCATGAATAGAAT", "PBM binding z-score": 4.42}
{"polymer-sequence": "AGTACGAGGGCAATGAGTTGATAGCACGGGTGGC", "PBM binding z-score": 0.711}
{"polymer-sequence": "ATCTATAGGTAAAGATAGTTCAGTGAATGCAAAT", "PBM binding z-score": 0.775}
{"polymer-sequence": "TCGTATAGGTAATACAGGTGAAAGTCGGCATCTA", "PBM binding z-score": 0.949}

###

# Test system: PPARg:RXRa IVT, anti-PPARg (NR concentration 270 nM, RXRa partner concentration 90 nM)
# test-summary: PBM binding z-score (relative to random genomic background probes); higher = stronger binding; sequences stand for … in GC…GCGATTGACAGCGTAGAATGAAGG

{"polymer-sequence": "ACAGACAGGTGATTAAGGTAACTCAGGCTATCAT", "tgt": "PPARg:RXRa IVT, anti-PPARg (NR concentration 270 nM, RXRa partner concentration 90 nM)", "PBM binding z-score": 0.557}
{"polymer-sequence": "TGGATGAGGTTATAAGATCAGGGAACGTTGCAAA", "tgt": "PPARg:RXRa IVT, anti-PPARg (NR concentration 270 nM, RXRa partner concentration 90 nM)", "PBM binding z-score": 0.649}
{"polymer-sequence": "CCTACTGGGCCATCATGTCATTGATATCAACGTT", "tgt": "PPARg:RXRa IVT, anti-PPARg (NR concentration 270 nM, RXRa partner concentration 90 nM)", "PBM binding z-score": 4.28}
{"polymer-sequence": "CGAACTAGGTCATTGACAGGCCAGTGAATAGTAA", "tgt": "PPARg:RXRa IVT, anti-PPARg (NR concentration 270 nM, RXRa partner concentration 90 nM)", "PBM binding z-score": 7.98}
{"polymer-sequence": "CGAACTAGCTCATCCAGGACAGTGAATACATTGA", "tgt": "PPARg:RXRa IVT, anti-PPARg (NR concentration 270 nM, RXRa partner concentration 90 nM)", "PBM binding z-score": -0.126}

###

// reported PBM binding z-score for each item listed
# Tested on: FXR:RXRa (NR concentration 270 nM, RXRa partner concentration 90 nM)
# test-summary: PBM binding z-score (relative to random genomic background probes); higher = stronger binding; sequences stand for … in GC…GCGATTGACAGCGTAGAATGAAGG

{"polymer-sequence": "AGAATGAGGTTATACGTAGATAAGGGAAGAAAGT", "tgt": "FXR:RXRa (NR concentration 270 nM, RXRa partner concentration 90 nM)", "PBM binding z-score": 2.05}
{"polymer-sequence": "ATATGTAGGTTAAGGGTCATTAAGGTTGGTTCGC", "tgt": "FXR:RXRa (NR concentration 270 nM, RXRa partner concentration 90 nM)", "PBM binding z-score": 5.05}
{"polymer-sequence": "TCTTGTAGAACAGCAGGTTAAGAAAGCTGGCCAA", "tgt": "FXR:RXRa (NR concentration 270 nM, RXRa partner concentration 90 nM)", "PBM binding z-score": -0.25}
{"polymer-sequence": "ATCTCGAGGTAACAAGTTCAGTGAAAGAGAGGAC", "tgt": "FXR:RXRa (NR concentration 270 nM, RXRa partner concentration 90 nM)", "PBM binding z-score": 0.617}
